Conditions: in acetonitrile, 323.15 K
ASSAY METRIC: solubility (mole fraction)
Would you mind answering with just the numeric figure?

What the record says about O=C(O)c1cccnc1Nc1cccc(C(F)(F)F)c1 : solubility (mole fraction) is 0.00745

---

Settings: in diisopropyl ether, 308.15 K
ASSAY METRIC: solubility (mole fraction)

What the record says about O=C(O)c1cccnc1Nc1cccc(C(F)(F)F)c1 : solubility (mole fraction) is 0.022

---

Conditions: in isopropanol, 328.15 K
ASSAY METRIC: solubility (mole fraction)
Would you mind answering with just the numeric figure?

What the record says about O=C(O)c1cccnc1Nc1cccc(C(F)(F)F)c1 : solubility (mole fraction) is 0.0235
